Target: glutathione-S-transferase (GST) tagged LXRbeta LBD (ligand binding domain) (Homo sapiens)
Construct: purchased Invitrogen pv4658.pps
Experiment: LanthaScreen TR-FRET Liver X Receptor Coactivator Assay, co-activator recruitment to LXRbeta LBD
Assay type: biochemical
Conditions: potency (Inflection Point, IP), co-activator recruitment to LXRbeta LBD, in relation to T0901317; read-out: LXR beta IP
measurement label: EC50 (nM)

Solved entries (count: 3):
- compound: "CC(C)Oc1cccc([C@@](O)(C(=O)N2CC(CC3CCN(c4ccc(C(=O)N(C)C)c(Cl)c4)CC3)C2)C(F)(F)F)c1"
  EC50, nM: 26
- compound: "COc1cc(Cl)cc([C@@](O)(C(=O)N2CCC(CC3CCN(c4ccc(C(=O)N(C)C)c(Cl)n4)CC3)CC2)C(F)(F)F)c1"
  EC50, nM: 3
- compound: "CCc1cccc(C(O)(C(=O)N2CCC(CC3CCN(c4ccc(C(=O)N(C)C)c(Cl)c4)CC3)CC2)C(F)(F)F)c1 (stereo not drawn)"
  EC50, nM: 36

1 = COc1cccc([C@@](O)(C(=O)N2CCC(CC3CCN(c4ccc(C(=O)N(C)C)cc4)CC3)CC2)C(F)(F)F)c1 [Example 2-124]
2 = CN(C)C(=O)c1ccc(N2CCC(CC3CCN(C(=O)C(N)(c4ccccc4)C(F)(F)C(F)(F)F)CC3)CC2)cc1Cl (stereo not drawn)
Input line: Looking at 1 and 2 , which one comes out lower in EC50 terms? Lab log: write the label of the selected item as the result.
Output line: 1
(1: 43 nM, 2: 335 nM)

----------
Target: glutathione-S-transferase (GST) tagged LXRbeta LBD (ligand binding domain) (Homo sapiens, UniProt P55055)
Construct: purchased Invitrogen pv4658.pps
Sequence (P55055 222-460 limits assumed): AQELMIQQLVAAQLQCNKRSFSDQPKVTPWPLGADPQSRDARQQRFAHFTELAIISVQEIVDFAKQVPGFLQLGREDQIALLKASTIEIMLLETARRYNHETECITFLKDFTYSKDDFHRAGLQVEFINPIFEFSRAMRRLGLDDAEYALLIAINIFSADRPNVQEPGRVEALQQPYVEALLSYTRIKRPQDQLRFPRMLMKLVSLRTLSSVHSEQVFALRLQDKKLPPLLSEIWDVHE
Experiment: LanthaScreen TR-FRET Liver X Receptor Coactivator Assay, co-activator recruitment to LXRbeta LBD
Format: biochemical
Settings: efficacy at max dose, in relation to reference dual agonist T0901317; read-out: LXR beta Activity @ max dose (%)
measurement label: Emax (%)

a = Cc1cccc([C@@](O)(C(=O)N2CCC(CC3CCN(c4ccc(C(=O)N(C)C)cc4)CC3)CC2)C(F)(F)F)c1 [Example 2-129]
b = CN(C)C(=O)c1ccc(N2CCC(CC3CCN(C(=O)[C@@](O)(c4cccc(Cl)c4)C(F)(F)F)CC3)CC2)nc1Cl [Example 7-70]
c = COc1cccc([C@@](O)(C(=O)N2CCCC(CC3CCN(c4ccc(C(=O)N(C)C)c(Cl)c4)CC3)CC2)C(F)(F)F)c1 (some centres unmarked) [Example 2-161]
d = NC(=O)c1ccc(N2CCC(CC3CCN(C(=O)[C@](O)(c4ccccc4)C(F)(F)F)CC3)CC2)cc1Cl [Example 12-2]
Input line: Put the above entries in order of falling Emax. Answer format: list of labels, ordered as asked.
Output line: b, d, a, c

P = Cc1cc(N2CCC(CC3(C)CCN(C(=O)[C@](O)(c4cc(F)cc(Cl)c4)C(F)(F)F)CC3)CC2)ccc1C(=O)N(C)C [Example 2-75]
Q = CC(C)Oc1cccc([C@@](O)(C(=O)N2CCC(C)(CC3CCN(c4ccc(C(=O)N(C)C)c(Cl)c4)CC3)CC2)C(F)(F)F)c1 [Example 2-55]
Input line: Of P and Q , whose reported Emax is numerically smaller? Refer to your chosen entry by its label in the reply.
Output line: Q

A = CC(C)Oc1cccc(C(O)(C(=O)N2CCC(CC3CCN(c4ccc(C(=O)N(C)C)c(Cl)c4)CC3)CC2)C(F)(F)F)c1 (centres unmarked) [Example 2-82]
B = COc1cccc([C@@](O)(C(=O)N2CCC(CN3CCN(c4ccc(C(=O)N(C)C)c(Cl)c4)CC3)CC2)C(F)(F)F)c1 [Example 6-4]
C = CNC(=O)c1ccc(N2CCC(CC3CCN(C(=O)[C@](O)(c4ccccc4)C(F)(F)F)CC3)CC2)nc1Cl [Example 7-141]
Input line: Highest Emax first, then in falling order down to the smallest. In plain terms: list the labels in the order you were asked to.
Output line: C, A, B
(C: 102%, A: 50%, B: 34%)

A = O=C(c1ccc(N2CCC(CC3CCN(C(=O)[C@](O)(c4ccccc4)C(F)(F)F)CC3)CC2)cc1Cl)N1CCC(c2ccncc2)C1 (some centres unmarked) [Example 4-17]
B = CN(C)C(=O)c1ccc(N2CCC(CC3CCN(C(=O)[C@](O)(c4cccc(F)c4)C(F)F)CC3)CC2)cc1Cl [Example 2-164]
C = COc1cccc([C@@](N)(C(=O)N2CCC(CC3CCN(c4ccc(C(=O)N(C)C)c(Cl)c4)CC3)CC2)C(F)(F)F)c1 [Example 2-103]
Input line: Put the molecules in ascending order of Emax. Answer format: the labels, ordered as requested.
Output line: C, A, B

A = CN(C)C(=O)c1ccc(N2CCC(OC3CCN(C(=O)C4(c5ccccc5)CCC4)CC3)CC2)cc1Cl [Example 2-27]
B = CN(C)C(=O)c1ccc(N2CCC(CC3CCN(C(=O)[C@](O)(c4cc(Cl)cc(Cl)c4)C(F)(F)F)CC3)CC2)cc1 [Example 2-133]
Input line: Given the listed items, does A or B have the lesser reported Emax? State your choice using its label.
Output line: B
(B: 54%, A: 82%)

1 = CNC(=O)c1ccc(N2CCC(CC3CCN(C(=O)[C@](O)(c4cccc(OC)c4)C(F)(F)C(F)(F)F)CC3)CC2)cc1Cl [Example 7-124]
2 = CN(Cc1cncs1)C(=O)c1ccc(N2CCC(CC3CCN(C(=O)[C@](O)(c4ccccc4)C(F)(F)F)CC3)CC2)cc1Cl [Example 4-20]
3 = O=C(c1ccc(N2CCC(CC3CCN(C(=O)[C@](O)(c4ccccc4)C(F)(F)F)CC3)CC2)cc1Cl)N1CCC(n2ccnc2)C1 (some centres unmarked) [Example 4-19]
Input line: Which order do these items take when sorted by rising Emax? List them. # output: labels, in the requested order
Output line: 3, 2, 1
(3: 43%, 2: 63%, 1: 96%)
